Listed compounds paired with reported growth inhibition
Test: NCI Yeast Anticancer Drug Screen. Data for the bub3 strain (AID 167)
Conditions: S. cerevisiae bub3 mutant strain, at 50.0 µM (retest, dose inferred, filed as 5.0), hits give high values
The panel holds about 79,000 compounds, 15% with a hit somewhere; the sample as a whole holds those more often.

| compound | growth inhibition / % |
| --- | --- |
| NC(=O)c1ccccc1OC(=O)NCCO | 3 |
| CCCCCCCCCCCCCCCCCC(=O)OCCOCCO | -24 |
| COc1c2c(cc3c1c(=O)c1ccccc1n3C)OCO2 | 0 |
| Cc1cn(C2CC(Br)C(COC(c3ccccc3)(c3ccccc3)c3ccccc3)O2)c(=O)[nH]c1=O (configuration not stated) | 99 |
| CCCCCCCCCCCC[N+]1(C)CCCC1c1cccnc1 (configuration not stated) | 92 |
| CCCCCCCCCCCCCCNCC(OCC)OCC | 99 |
| Nc1nc(-c2ccccc2)nc(Cl)c1I | 16 |

----------
Listed compounds paired with reported growth inhibition
Experiment: NCI Yeast Anticancer Drug Screen. Data for the bub3 strain (AID 167)
Conditions: S. cerevisiae bub3 mutant strain, at 50.0 µM, hits give high values
Procedure: Growth inhibition of yeast strains with defined genetic alterations is measured as a screen for potential anti-cancer activity. Selected strains with alterations in DNA damage repair or cell cycle control were exposed to compounds and growth inhibition was measured relative to vehicle treated controls. The strain used in this assay is bub3
The panel holds about 79,000 compounds, 15% with a hit somewhere; the sample as a whole holds those more often.

| compound | growth inhibition, % |
| --- | --- |
| Cc1nnc2nc3c(nn12)c1ccccc1n3C | -0.35 |
| O=C1/C(=C/c2ccccc2Cl)COc2ccccc21 | 90.7 |
| CS(=O)(=O)c1ccc(C[N+]23CN4CN(CN(C4)C2)C3)cc1 | -4.75 |
| CC(O)c1c2c(cc3c1CC1(C3)Cc3cc4c(c(C(C)O)c3C1)CCC4)CCC2 (configuration not stated) | 87.2 |
| CC(C)CCN(CCC(C)C)C(=S)Nc1ccccc1 | 92 |
| CCCCC(CCc1ccccc1[N+](=O)[O-])(C(C)=O)C(=O)OCC (configuration not stated) | 80.5 |
| Fc1cccc(NC(=S)SCc2ccc(Cl)cc2)c1 | 99.5 |
| CCCOc1cc(C(=O)OCCN(CC)CC)cc(OCCC)c1OCCC | 23 |
| FC(F)(F)c1ccccc1NC(=S)SCc1ccco1 | 81.3 |
| O=C([O-])C[n+]1c(/C=C/c2ccccc2)ccc2ccccc21 | 6.8 |
| O=[N+]([O-])c1ccc(-c2nc3c(o2)CCC3)cc1 | -4.6 |
| NC(=O)c1ncn(C2OC(CO)C(O)C2O)c1O (configuration not stated) | -7.85 |

----------
Test: NCI Yeast Anticancer Drug Screen. Data for the rad50 strain (AID 155);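 note: 0% = growth of vehicle-only cultures of the same strain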
Settings: S. cerevisiae rad50 strain growth inhibition; at 50.0 µM (retest, dose inferred, filed as 5.0); hits give high values
This is part of a sample that, as a whole, favours compounds with a hit. Of some 79,000 tested, about 15% had one in any assay.

| molecule | units.label | growth inhibition |
| --- | --- | --- |
| CN(C)CCCNc1c2ccccc2nc2cccc([N+](=O)[O-])c12 | % | 99 |
| CC([C@H]1CCC2C3CCC4CC5(CC[C@]4(C)C3CC[C@@]21C)c1ccccc1C(=O)N5C)N(C)C (stereo partly specified) | % | 81 |
| CC(=O)OC1CCCCCCCCCCC12OCCO2 (stereo unspecified) | % | 96 |
| CC1CC(=O)OC(C(=O)c2ccccc2)N1c1ccc(C(F)(F)F)cc1N (stereo unspecified) | % | 30 |
| COc1ccc(NC(=O)Nc2ccc(Cl)cc2)nn1 | % | 4 |
| O=C1/C(=C/c2cccc(Br)c2)CCc2ccccc21 | % | 26 |
| CCCCC(C)(C)OC(=O)Nc1ccc(Br)cc1 | % | 95 |
| O=C(O)c1ccc2ccccc2c1C(=O)c1cccc2ccccc12 | % | 12 |
| Cc1ccccc1C1c2c(C)cccc2C(=O)CC1CC(=O)O (stereo unspecified) | % | 60 |
| Cc1[nH]ccc2c(C)c3nc4ccccc4c3cc12 | % | 97 |
| S=c1c2cn[nH]c2nc2scc(-c3ccc(Cl)cc3)n12 | % | 98 |

----------
Listed molecules paired with reported growth inhibition
Test: NCI Yeast Anticancer Drug Screen. Data for the mlh1 rad18 strain (AID 175)
Conditions: S. cerevisiae mlh1 rad18 strain growth inhibition; at 5.0 µM (retest, dose inferred, filed as 0.5); hits give high values
About 79,000 compounds went through this panel and 15% of them were active in at least one assay; those are over-represented in the sample as a whole.
readout.type: growth inhibition (%)

| molecule | units.label | readout.value |
| --- | --- | --- |
| C/C(=N\NC(=S)Nc1ccc(N(C)C)cc1)c1ccccn1 | % | -7 |
| C=C1C(=O)O[C@@H]2CC(CO)=C([C@@H](C)CCCO)[C@@H](OC(=O)/C(C)=C\C)[C@H]12 | % | -2 |
| CCCCCC(C)(O)C#CC(C)(O)CCCCC (stereo not given) | % | 2 |
| O=C1c2ccccc2-c2cc(S)c([N+](=O)[O-])cc21 | % | -6 |
| C[C@]12CCC(=O)C=C1CC[C@@H]1[C@@H]2[C@@H](O)C[C@@]2(C)[C@H]1CC[C@]2(O)C(=O)COC(=O)CCC1CCCC1 | % | 75 |

----------
Assay: NCI Yeast Anticancer Drug Screen. Data for the sgs1 mgt1 strain (AID 161);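 note: 0% = growth of cultures given vehicle only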
Conditions: S. cerevisiae sgs1 mgt1 strain, at 5.0 µM (retest, dose inferred, filed as 0.5), hits give high values
Compounds without any hit were thinned out: in the full panel of roughly 79,000, 15% have a hit. Calls of active or inactive are those of the source. Rule as the data show it: active = growth inhibition above about 70%; inactive = the rest.

| compound | growth inhibition |
| --- | --- |
| CCN(CC)C(C)(C)C(=O)/C=C/c1ccc(Cl)cc1 | 24% (inactive) |
| O=C(O)C1(Cc2ccc3c(c2)CCC3)Cc2cc3c(cc2C1)CCC3 | -1% (inactive) |
| [Fe+2].c1cc[cH-]c1.c1ccc(-c2ccc[cH-]2)cc1 | -6% (inactive) |
| Nc1ccc2ccccc2c1N=Cc1ccccc1[N+](=O)[O-] | 5% (inactive) |
| O=C1C(Cl)=C(Nc2cc(Cl)ccc2Cl)C(=O)c2ccccc21 | 68% (inactive) |
| CC(C)(Br)C(Br)C(=O)C(Br)C(C)(C)Br (stereo unspecified) | -4% (inactive) |
| CCCCc1c2c(nc3c1CCC/C3=C\c1ccccc1)C(=O)C(CN(C)C)CC2 (stereo unspecified) | 29% (inactive) |
| O=C1CN(/N=C\c2ccc([N+](=O)[O-])o2)C(=O)N1 | 2% (inactive) |
| CC(C)(C)c1cc(Nc2ccc([N+](=O)[O-])cc2[N+](=O)[O-])cc(C(C)(C)C)c1O | 6% (inactive) |
| COC(=O)c1cc(-c2ccc([N+](=O)[O-])cc2)c2c(=O)n(-c3ccccc3)[nH]c2n1 | -1% (inactive) |
| CC(=O)SC1C(=O)N(C)C(SC(C)=O)C(=O)N1C (stereo unspecified) | 0% (inactive) |
| CC(=O)Nc1cc(F)c2c(c1)Cc1ccccc1-2 | -1% (inactive) |
| CCCCCCC(=O)Nc1ccc(OC(=O)CCCCCC)c(=O)cc1 | 33% (inactive) |
| CCCCCCCCCCC(=O)CC(=O)c1c(O)cccc1O | 10% (inactive) |
| CCOC(=O)C[P+](c1ccc(C)cc1)(c1ccc(C)cc1)c1ccc(C)cc1 | 11% (inactive) |
| O=C1CCC(O)N1CN1C(=O)CCC1O (stereo unspecified) | 9% (inactive) |
| CCOC1(c2ccccc2)c2ccccc2S(=O)(=O)N1C (stereo unspecified) | 14% (inactive) |
| CC(C)(C)C(=O)OC12/C(=N/O)CCCCCC1c1ccccc12 (stereo unspecified) | -12% (inactive) |
| O=C(CC1Sc2ccccc2NC1=O)Nc1ccc([N+](=O)[O-])cc1[N+](=O)[O-] (stereo unspecified) | 51% (inactive) |
| CCCCCC(C)(C)N=C=S | -1% (inactive) |
| Nc1ccc(-c2nc3ccccc3s2)cc1I | 44% (inactive) |
| C[N+]1=C(/C=C\c2ccc(O)c3ccccc23)C(C)(C)c2ccccc21 | -2% (inactive) |
| CCCCCCCCCCCC[N+](C)(CCS(=O)(=O)[O-])Cc1ccccc1 (stereo unspecified) | 1% (inactive) |
| CCCCN(CCO)CC(O)Cn1cnc2c(N)ncnc21 (stereo unspecified) (tested in a mixture with another compound) | -18% (inactive) |
| O=C(Oc1cc(Cl)c(Cl)cc1Cl)c1ccco1 | 0% (inactive) |
| CCN1CC(=O)N(C)C1=S | 8% (inactive) |
| CCC(C)OC(=O)c1cccc(C)c1 (stereo unspecified) | 1% (inactive) |
| CCCCCCC(O)(CCCCCC)CCCCCC | -3% (inactive) |
| FC(F)(F)c1cc(NC(=S)SC2CCCCC2)ccc1Cl | 4% (inactive) |
| COC(=O)c1c(C)cccc1C1CN=NC12Cc1ccc(C)c(C)c1C2=O (stereo unspecified) | 13% (inactive) |
| CCCC(O)[C@@]1(CC)CC(C)C(O)(C2(C)C[C@H](C)[C@@H](C(CC)C(=O)C(C)[C@@H](O)[C@H](C)C3OC(O)(C(CC)C(=O)O)[C@@H](C)C(O)C3CC)O2)O1 (stereo partly specified) | -9% (inactive) |
| O=C1CSC(=S)N1c1cccc(Cl)c1 | 13% (inactive) |
| O=C1C2=C(C(=O)c3cnccc31)C1C=CC2CC1 (stereo unspecified) | 25% (inactive) |
| C/C([O-])=C1\Cc2ccccc2C1=O.C/C([O-])=C1\Cc2ccccc2C1=O.CC[O-].CC[O-].[Ti+4] | 4% (inactive) |
| O=c1c(Cl)c(Cl)c(=O)c2sc3cc(Cl)ccc3[nH]c1=2 | -3% (inactive) |
| c1cc[c]([Sn]([O]c2cccc3cccnc23)([c]2ccccc2)[c]2ccccc2)cc1 | 100% (active) |
| COC(=O)c1ccccc1NC(=S)NN(C)C | -5% (inactive) |
| Nc1ccc(CSc2ccc(Cl)cc2)cc1Cl | -6% (inactive) |
| N#C/C(=C/c1ccccc1B(O)O)C(=O)O | -61% (inactive) |
| Cc1c(C(C)(C)C)cc(C(C)(C)C)c(O)c1CN(C)Cc1c(C)c(C(C)(C)C)cc(C(C)(C)C)c1O | 3% (inactive) |
| Cc1ccc(C)c2[nH]c(-c3ccccc3)cc12 | 0% (inactive) |
| Cn1nc2c(c(Cl)c1=O)Nc1ccccc1O2 | -20% (inactive) |
| Cc1ccc(O)c(C(c2cc(C)ccc2O)c2cc([N+](=O)[O-])ccc2O)c1 | 17% (inactive) |
| CCN(CC)CCSCCCNc1cc(OC)cc2cccnc12 | 13% (inactive) |
| CC(CN1CCOCC1)(CN1CCOCC1)[N+](=O)[O-] | 4% (inactive) |
| CC(C)CCN(CCC(C)C)C(=S)Nc1ccccc1 | -20% (inactive) |
